Just for reference, ChEMBL document CHEMBL3352567 is where these values come from.

Assay: Plasma concentration in conscious Sprague-Dawley rat plasma assessed as radiotracer at < 10 nmol/kg, tail-vein injections at 40 mins
Type: ADME, cell-free
Details: iv, read-out: Stability

{"columns": ["smiles.entry", "remaining at 40 min [%]"],
 "data": [
  ["COC[C@@H]1CN(c2noc3cc(OCCC[18F])ccc23)C(=O)O1", 33]
]}

---

Biological target: Amine oxidase [flavin-containing] B (Homo sapiens, UniProt P27338)
Sequence (P27338 whole entry): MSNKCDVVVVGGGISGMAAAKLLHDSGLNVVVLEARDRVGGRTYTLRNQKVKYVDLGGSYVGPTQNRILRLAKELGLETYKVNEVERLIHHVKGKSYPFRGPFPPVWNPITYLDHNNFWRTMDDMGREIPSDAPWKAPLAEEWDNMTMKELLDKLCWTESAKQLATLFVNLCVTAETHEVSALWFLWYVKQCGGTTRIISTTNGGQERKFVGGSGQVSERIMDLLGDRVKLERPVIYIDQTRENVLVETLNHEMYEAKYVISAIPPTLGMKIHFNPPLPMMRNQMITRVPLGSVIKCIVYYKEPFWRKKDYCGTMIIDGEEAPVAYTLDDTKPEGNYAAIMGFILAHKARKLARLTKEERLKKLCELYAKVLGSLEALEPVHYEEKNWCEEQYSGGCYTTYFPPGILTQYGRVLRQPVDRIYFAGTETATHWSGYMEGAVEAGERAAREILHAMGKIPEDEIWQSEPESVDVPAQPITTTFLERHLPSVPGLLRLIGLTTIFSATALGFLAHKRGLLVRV
Assay: Inhibition of human recombinant MAO-B by luminescence analysis
pIC50: −log10 of the molar value.

{"columns": ["smiles.entry", "study.target", "pIC50"],
 "data": [
  ["COC[C@@H]1CN(c2noc3cc(OCCCCF)ccc23)C(=O)O1", "Amine oxidase [flavin-containing] B (Homo sapiens, UniProt P27338)", 6.92],
  ["COC[C@@H]1CN(c2noc3cc(OCCCF)ccc23)C(=O)O1", "Amine oxidase [flavin-containing] B (Homo sapiens, UniProt P27338)", 6.48],
  ["COC[C@@H]1CN(c2noc3cc(OCCCC(F)(F)F)ccc23)C(=O)O1", "Amine oxidase [flavin-containing] B (Homo sapiens, UniProt P27338)", 7.33],
  ["COC[C@@H]1CN(c2noc3cc(OCCCCCF)ccc23)C(=O)O1", "Amine oxidase [flavin-containing] B (Homo sapiens, UniProt P27338)", 6.96]
]}

---

Organism: Homo sapiens
Assay: Selectivity index, ratio of IC50 for human recombinant MAO-B to IC50 for human recombinant MAO-A
# key: entry, value: Ratio IC50
property: Ratio IC50

{"columns": ["smiles.entry", "measured.value"],
 "data": [
  ["COC[C@@H]1CN(c2noc3cc(OCCCC(F)(F)F)ccc23)C(=O)O1", 4680],
  ["COC[C@@H]1CN(c2noc3cc(OCCCCF)ccc23)C(=O)O1", 54],
  ["COC[C@@H]1CN(c2noc3cc(OCCCF)ccc23)C(=O)O1", 6],
  ["COC[C@@H]1CN(c2noc3cc(OCCCCCF)ccc23)C(=O)O1", 7730]
]}

---

Assay: n-Octanol-phosphate buffered saline distribution coefficient, log D of the compound at pH 7.4 by shake flask method
Assay type: physicochemical
# key: entry, value: logD
property: logD

{"columns": ["smiles.entry", "measured.value"],
 "data": [
  ["COC[C@@H]1CN(c2noc3cc(OCCCF)ccc23)C(=O)O1", 2.6],
  ["COC[C@@H]1CN(c2noc3cc(OCCCC(F)(F)F)ccc23)C(=O)O1", 3.34]
]}
